test: Cytotoxicity against human HCT116 cell line; format: cell-based; settings: HCT-116 cells
For each record, write down the corresponding GI50.
Give bare numbers, in µM.

Past entries and their recorded results:
[[record]]
molecule = "COc1cc2c(c(OC)c1OC)-c1c(c3ccc([N+](=O)[O-])cc3c(=O)n1CCCN)C2=O"
reported_result = 0.832

[[record]]
molecule = "COc1cc2c(cc1OC)-c1c(c3ccc([N+](=O)[O-])cc3c(=O)n1CCCBr)C2=O"
reported_result = 4.27

[[record]]
molecule = "COc1cc2c(cc1OC)-c1c(c3ccc([N+](=O)[O-])cc3c(=O)n1CCCN)C2=O"
reported_result = 0.589


// for each molecule below, give its GI50
1. COc1cc2c(cc1OC)[C@@H]1[C@H](C2=O)c2ccc([N+](=O)[O-])cc2C(=O)N1CCCBr (relative stereo)
2. COc1cc2c(cc1OC)-c1c(c3ccc([N+](=O)[O-])cc3c(=O)n1CCCN=[N+]=[N-])C2=O
3. COc1ccc2c(c1OC)-c1c(c3ccc([N+](=O)[O-])cc3c(=O)n1CCCN)C2=O
4. COc1ccc2c(c1)C(=O)c1c-2n(CCCCl)c(=O)c2cc([N+](=O)[O-])ccc12

Result block:
[4.57, 31.6, 1.51, 0.794]
